- Tested on: A549
- assay: NCI tumour cell line growth inhibition, 48 h
The source made the active and inactive calls. Rule as the data show it: active = GI50 up to about 1.1 µM and inactive = higher.
// classify into active, inactive

Could you please tell me the result logged for C=CCOc1ccc(N)c([N+](=O)[O-])c1 in this assay?
inactive

I'd appreciate the recorded outcome for CCOc1cc(C2CC(c3ccc(NS(=O)(=O)c4cc([N+](=O)[O-])ccc4C)cc3)=NN2)ccc1O (stereo not given) from this test.
inactive

Identify the outcome logged in this assay for the molecule shown: COc1ccc(-c2c(-c3ccccc3)c(C)nc3[nH]c(=S)[nH]c(=S)c23)cc1OC
inactive

Which result was noted for this molecule in the test: O=S(=O)(N/C(=N\O)Nc1ccc(Cl)cc1)c1cc2ccccc2o1
inactive

Hi, do you know how CC(=O)OCC12C(=O)C[C@@H](C)C3(CC(c4ccoc4)OC3=O)C1CCC(OC(C)=O)C21CO1 (stereo not given in full) came out in this test?
inactive

Assay outcome for COc1c(C2=NC(C(C)C)CO2)ccc2ccccc12 (stereo not given) : what was it?
inactive

What call does the record list for CC1=CC(=O)c2cccc(NC3=NCCO3)c21 ?
inactive

How did this test come out for COc1cccc(C2c3cc4c(cc3OC(NNC(N)=O)C2C)OCO4)c1O (stereo not given) ?
inactive

Would you mind telling me which call this test gave CCCCCCC(=O)O[C@H]1CC[C@H]2[C@@H]3CCC4C/C(=N/NC(=O)c5cccc6c(=O)c7ccccc7[nH]c56)C=C(C)[C@]4(C)[C@H]3CC[C@]12C (stereo not given in full) ?
inactive

Any idea what this test logged for C/C(=N\NC(=O)c1ccncc1)c1ccc2ccccc2c1O ?
inactive

Called result for CCOC(=O)Nc1ccc(S(=O)(=O)I)cc1.CCOC(=O)Nc1ccc(S(=O)(=O)I)cc1.CN(C=O)C1=C(N(C)C=O)C(N(C)C=O)=C(N(C)C=O)C(=O)C1=O
inactive

Kindly provide the recorded test outcome for the following molecule: CCC(CC)C(=O)OC[n+]1ccc(-c2c(COC(=O)NC(C)C)c(COC(=O)NC(C)C)c3n2CCC3)cc1
inactive

Record lookup: outcome of this test for C[C@]12CC[C@H]3[C@@H](CCC4=C(Br)C(=O)C=C[C@@]43O)[C@@H]1CCC2=O ?
inactive

Recorded test call requested for O=C(O/N=C1/CCCC/C1=C\c1ccccc1)c1ccc(Cl)cc1
inactive

Name the outcome recorded for S=C(Nc1ccc2cn[nH]c2c1)Nc1ccc2cn[nH]c2c1 in the assay.
inactive

// return assay outcome for C[N+]1(C(CO)Cc2c[nH]c3ccccc23)Cc2ccccc2C1 (stereo not given)
inactive

Which result was noted for this molecule in the test: O=C1N(C2CCCCC2)C(=O)N1C1CCCCC1
active

Please share the test call associated with C=C1c2nc3ccccc3n2C=C(c2ccc(OC)cc2)N1c1ccc(OCCN2CCOCC2)cc1 .
inactive

# fetch the recorded call for O=C(O)CSc1nc2ccccc2[nH]1 here
inactive

Each molecule tested received a call. Report the one for O=c1cnn(C2OC(CO)C(O)C(F)C2O)c(=O)[nH]1 (stereo not given) .
inactive

====

- System: MOLT-4
- assay: NCI tumour cell line growth inhibition, 48 h
The source made the active and inactive calls. No stated cut-off is given here; in the data, active = GI50 up to about 1.1 µM and inactive = higher. *1 amine or outer side, *2 acyl side, *3 side chain or, on linkers, in order; H or OH if unused. Where a SMILES comes first, the peptide text is derived from it. [ ]: non-standard residue; d: D form. The star is where a group is joined. ξ: configuration not given here. X43 = CCC(=O)CC(O)CC(C)CC(N[*:1])C(=O)[*:2]; ξLeu(3ξ-OH) = CC(C)C(O)C(N)C(=O)O; ξPro(4ξ-Me) = CC1CNC(C(=O)O)C1; X42 = CCC(C)/C=C/C(=O)*; Aib = CC(C)(N)C(=O)O; X44 = CC(CN(C)C)N*; βAla = NCCC(=O)O
Your reply should match one of these outcome classes. active, inactive

Tell me the assay call for CSc1c([S+](C)[O-])[nH]c2cc(Br)cc(Br)c12 (stereo unspecified) please.
inactive

Recorded test outcome, item O=S1(=O)N=C(SCc2c[nH]c3ccccc23)N(c2ccccc2)c2ccncc21
inactive

// outcome(item) with item = COC(=O)NNc1c([N+](=O)[O-])cnn(-c2ccccc2)c1=O
active

Query: recorded result category for CCOC(=O)Cc1[nH]c(C(=O)c2ccccc2)cc1C(=O)c1ccccc1 in this test
inactive

Which result was noted for this compound in the test: O=C1/C(=N\O)c2ccccc2S1(=O)=O
inactive

Test call, this compound: CCN1CCC(O)(c2ccc(Oc3ccc(C)cc3)cc2)C(C(=O)c2ccc(Oc3ccc(C)cc3)cc2)C1 (stereo unspecified)
inactive

Could you check what this test reported for COc1ccc(/C(Cl)=C(\C=O)c2ccc(Cl)c(Cl)c2)cc1 ?
inactive

Hey, what did the test say about O=C(/C(=C\c1ccc(Cl)cc1)c1ccccc1)c1ccccc1 ?
inactive

Which outcome was assigned to NS(=O)(=O)c1ccc(NC(=O)c2cccc3c(=O)c4ccccc4[nH]c23)cc1 in this test?
inactive

Called result for COC(=O)c1cnc(Cl)cn1
inactive

Any idea what this test logged for CCC(=O)CC(O)CC(C)CC(NC(=O)C1CC(C)CN1C(=O)/C=C/C(C)CC)C(=O)NC(C(=O)NC(C)(C)C(=O)NC(CC(C)C)C(=O)NC(CC(C)C)C(=O)NC(C)(C)C(=O)NC(C)(C)C(=O)NCCC(=O)NC(C)CN(C)C)C(O)C(C)C (stereo unspecified) (X42-[ξPro(4ξ-Me)][X43][ξLeu(3ξ-OH)][Aib]LL[Aib][Aib][βAla]-X44; configuration not given here) ?
active
